Reference source for all entries: ChEMBL document CHEMBL1201862

# System: SK-MEL-28
# TEST PROTOCOL: NCI tumour cell line growth inhibition, 48 h
Active and inactive are the calls of the source. Cut-off read from the data, not from the text of the source: active = GI50 up to about 1.1 µM and inactive = higher.
Outcome codes: TRUE for active, FALSE for inactive

MOLECULE	LABEL VALUE
CC1=C(Nc2c(C)cc(O)cc2O)C(=O)C=c2oc3c(c21)C(C)=C(Nc1c(C)cc(O)cc1O)C(=O)C=3	FALSE
CN1C=Cc2nccc3cc4c(c1c23)OCO4	FALSE
COc1cc(/C=C2\N=C(c3ccccc3)N(C3Nc4cc5c(cc4S3)NC(N3C(=O)/C(=C/c4cc(OC)c(OC)c(OC)c4)N=C3c3ccccc3)S5)C2=O)cc(OC)c1OC (stereo not given)	FALSE
O=C(Cc1ccc(F)cc1)NC1=C(Cl)C(=O)c2ccccc2C1=O	FALSE
COC(=O)C1(C#N)C(C)(C)N=C(c2ccccc2)C12CCCCC2 (stereo not given)	FALSE
Cc1cc(=O)oc2cc(OS(C)(=O)=O)ccc12	FALSE
CCOC(=O)c1sc2nc(-c3ccccc3)nn2c1CBr	FALSE
COc1cc(C2SCC(=O)N2NC(=O)c2ccc(NC(C)=O)cc2OC)ccc1O (stereo not given)	FALSE
COC1=C(C)C(=O)c2c(c(COC(N)=O)c3n2CC(OC(C)=O)C3OC(C)=O)C1=O (stereo not given)	TRUE
N=C(N)N/N=C/c1c(-c2cc([N+](=O)[O-])c(Cl)cc2Cl)nc2n1CCS2	FALSE
